# Test system: L1210 leukemia
# Experiment: Antitumor activity in BDF1 mice inoculated with L1210 leukemia cells (Table 6)
# Assay type: in vivo
# Condition Description: 1.25 mg./kg./day i.p., once daily for 10 days
Kindly supply the reported Antitumor Activity (T/C, prolongation rate of survival day) values for the records listed here.
Lab book: enter the figure in %, no units written.

Data request: Query: Antitumor Activity (T/C, prolongation rate of survival day); subject: COc1cccc2c1C(=O)c1c(O)c3c(c(O)c1C2=O)C[C@@](O)(C(=O)CO)C[C@@H]3O[C@H]1C[C@H](N)[C@H](OC2CCCCO2)[C@H](C)O1 (single isomer, unassigned; isomer a) [4'-O-PAa]
Data returned: 180

Data request: Next compound: COc1cccc2c1C(=O)c1c(O)c3c(c(O)c1C2=O)C[C@@](O)(C(C)=O)C[C@@H]3O[C@H]1C[C@H](N)[C@H](OC2CCCCO2)[C@H](C)O1 (single isomer, unassigned; isomer a) [4'-O-PDa]
Data returned: 122

Data request: Then this compound: COc1cccc2c1C(=O)c1c(O)c3c(c(O)c1C2=O)C[C@@](O)(C(=O)COC1CCCCO1)C[C@@H]3O[C@H]1C[C@H](N)[C@H](OC2CCCCO2)[C@H](C)O1 (single isomer, unassigned; isomer b) [4',14-di-O-PAb]
Data returned: 103

* * *

Would you mind telling me the reported Antitumor Activity (T/C, prolongation rate of survival day) of each entry?
# System: L1210 leukemia
# Experiment: Antitumor activity in BDF1 mice inoculated with L1210 leukemia cells (Table 6)
# Format: in vivo
# Condition Description: 5 mg./kg./day i.p., once daily for 10 days
# number only, unit % dropped from output

Data request: Recorded Antitumor Activity (T/C, prolongation rate of survival day) for COc1cccc2c1C(=O)c1c(O)c3c(c(O)c1C2=O)C[C@@](O)(C(=O)COC1CCCCO1)C[C@@H]3O[C@H]1C[C@H](N)[C@H](O)[C@H](C)O1 (stereo partly shown) [Example 14-O-PA, 14-O-tetrahydropyranyl adriamycin] , please?
Data returned: 142

Data request: Same again, this time with COc1cccc2c1C(=O)c1c(O)c3c(c(O)c1C2=O)C[C@@](O)(C(=O)COC1CCCCO1)C[C@@H]3O[C@H]1C[C@H](N)[C@H](OC2CCCCO2)[C@H](C)O1 (single isomer, unassigned; isomer b) [4',14-di-O-PAb]
Data returned: 161

Data request: # repeat for COc1cccc2c1C(=O)c1c(O)c3c(c(O)c1C2=O)C[C@@](O)(C(=O)COC1CCCCO1)C[C@@H]3O[C@H]1C[C@H](N)[C@H](OC2CCCCO2)[C@H](C)O1 (single isomer, unassigned; isomer a) [4',14-di-O-PAa]
Data returned: 154

* * *

I'd appreciate it if you could supply response vs control in vivo at 2.5 mg/kg values for the items below.
# System: L1210 cells
# Experiment: animal or person
# Type: in vivo, CDF1 mice
# Condition Description: Mus musculus, L1210, ip, 1080 h, read-out: Antitumor Activity (T/C, prolongation rate of survival day), 2.5 mg/kg/day i.p., once daily for 10 days
# unit: % | format: bare number

Data request: Fill in: response vs control in vivo at 2.5 mg/kg of COC(=O)C1CCCC(O[C@@H]2[C@H](C)O[C@@H](O[C@H]3C[C@](O)(C(C)=O)Cc4c(O)c5c(c(O)c43)C(=O)c3c(OC)cccc3C5=O)C[C@@H]2N)O1 (stereo partly shown) is ___
Data returned: 106

Data request: Repeat with CCCCOC(C)O[C@@H]1[C@H](C)O[C@@H](O[C@H]2C[C@](O)(C(=O)CO)Cc3c(O)c4c(c(O)c32)C(=O)c2c(OC)cccc2C4=O)C[C@@H]1N (single isomer, unassigned)
Data returned: 138

Data request: Also, COc1cccc2c1C(=O)c1c(O)c3c(c(O)c1C2=O)C[C@@](O)(C(=O)CO)C[C@@H]3O[C@H]1C[C@H](N)[C@H](OC(C)OCC(C)C)[C@H](C)O1 (single isomer, unassigned) please.
Data returned: 151

Data request: Param item: COc1cccc2c1C(=O)c1c(O)c3c(c(O)c1C2=O)C[C@@](O)(C(C)=O)C[C@@H]3O[C@H]1C[C@H](N)[C@H](OC(C)OCC(C)C)[C@H](C)O1 (single isomer, unassigned)
Data returned: 119
